Origin of the recorded values: patent US9844217B2

System: chicken mites
Assay: Tests for resistance to other miticides
Parameters: species or system Dermanyssus gallinae
Details: 1× the dose on the product's instructions
Assign Criterion met whenever % deaths 1× dose does not fall below 20%; assign Criterion not met whenever it does.

Example entries begin here.
| COMPOUND | GROUP_LABEL |
| --- | --- |
| Cc1ccc(/N=C/N(C)/C=N/c2ccc(C)cc2C)c(C)c1 | Criterion met |
| CC1(C)C(C=C(Cl)Cl)C1C(=O)OC(C#N)c1cccc(Oc2ccccc2)c1 (centres unmarked) | Criterion met |
| CNC(=O)Oc1cccc2ccccc12 | Criterion not met |

Please look at the following compound next.
Threshold query (% deaths 1× dose >= 20%) on COP(=O)(OC)SCn1c(=O)oc2cc(Cl)cnc21
Criterion met

---

Tested on: chicken mites
Test: Tests for resistance to other miticides
Set-up: species or system Dermanyssus gallinae
Conditions: 16× the commercial dose
Attribute: % deaths 16× dose
Just the number in %, nothing appended.

Below, 3 molecules whose answers are already recorded.
| MOLECULE | TEST_SYSTEM | EXPERIMENTAL_VALUE |
| --- | --- | --- |
| COP(=O)(OC)SCn1c(=O)oc2cc(Cl)cnc21 | chicken mites | 100.00 |
| Cc1ccc(/N=C/N(C)/C=N/c2ccc(C)cc2C)c(C)c1 | chicken mites | 100.00 |
| CNC(=O)Oc1cccc2ccccc12 | chicken mites | 91.1 |

Respond only with % deaths 16× dose recorded for CC1(C)C(C=C(Cl)Cl)C1C(=O)OC(C#N)c1cccc(Oc2ccccc2)c1 (centres unmarked)
98.9

Respond only with % deaths 16× dose recorded for COP(=O)(OC)C(O)C(Cl)(Cl)Cl (centres unmarked)
80.8

---

System: chicken mites
Experiment: Tests for resistance to other miticides
Set-up: species or system Dermanyssus gallinae
Settings: 32× the commercial dose
RECORDED_ENDPOINT: % deaths 32× Dose (%)
Just the number in %, nothing appended.

Below, 4 molecules whose answers are already recorded.
| MOLECULE | EXPERIMENTAL_VALUE |
| --- | --- |
| COP(=O)(OC)C(O)C(Cl)(Cl)Cl (centres unmarked) [Trichlorfon] | 94.4 |
| COP(=O)(OC)SCn1c(=O)oc2cc(Cl)cnc21 [Azamethiphos] | 97.8 |
| CC1(C)C(C=C(Cl)Cl)C1C(=O)OC(C#N)c1cccc(Oc2ccccc2)c1 (centres unmarked) [Aplhamethrine] | 99.6 |
| Cc1ccc(/N=C/N(C)/C=N/c2ccc(C)cc2C)c(C)c1 [Amitraz] | 100.0 |

Respond only with % deaths 32× Dose recorded for CNC(=O)Oc1cccc2ccccc12 [Carbaryl]
97.8
